# Experimental details: Intrinsic clearance in rat liver microsomes
# Assay type: ADME
# Study conditions: read-out: CLH
Readout: CLint scaled

compound_string=O=C(O)c1ccc(S(=O)(=O)N(Cc2ccc(C(F)(F)F)cc2)c2ncc(Cl)cc2Cl)cc1 readout="CLint scaled" observed_result="< 10.4 mL/min/kg"
compound_string=O=C(O)c1ccc(S(=O)(=O)N(Cc2ccc(OC(F)(F)F)cc2)c2ncc(C(F)(F)F)cc2Cl)cc1 readout="CLint scaled" observed_result="< 10.4 mL/min/kg"

* * *

# Experimental details: Fraction unbound in rat plasma
# Assay type: ADME, cell-free
Readout: fraction unbound

compound_string=O=C(O)c1ccc(S(=O)(=O)N(Cc2ccc(OC(F)(F)F)cc2)c2ncc(C(F)(F)F)cc2Cl)cc1 readout="fraction unbound" observed_result=0.0031
compound_string=O=C(O)c1ccc(S(=O)(=O)N(Cc2ccc(C(F)(F)F)cc2)c2ncc(Cl)cc2Cl)cc1 readout="fraction unbound" observed_result=0.011

The measured values listed here are drawn from ChEMBL document CHEMBL3351889.
